- method: Solubility of isolated crystalline salts of 1-11 in water and organic solvents
- Assay type: physicochemical
- measurement_parameters: acetonitrile, organic solvent or mixture
Where a name gives a salt, the structure may show the parent alone.

[
  {
    "compound": "CS(=O)(=O)N1CCN(Cc2ccc3[nH]c(-c4cc5ccccc5[nH]c4=O)cc3c2)CC1 [Salt 1-11B]",
    "Solubility [µg/mL]": 30
  }
]

---

- method: Solubility of isolated crystalline salts of 1-11 in water and organic solvents
- Type: physicochemical
- measurement_parameters: isopropanol, organic solvent or mixture, thermodynamic from solid, RT for 7 days
Structures can show the parent of a compound that is named as a salt.

[
  {
    "compound": "CS(=O)(=O)N1CCN(Cc2ccc3[nH]c(-c4cc5ccccc5[nH]c4=O)cc3c2)CC1 [Salt 1-11D]",
    "solubility at 7 days / µg/mL": 57
  }
]
